Reference source: ChEMBL document CHEMBL3865823

Test system: Mus musculus
test-details: Antiamnesic activity against scopolamine-induced memory loss in albino mouse assessed as basal latency to reach shock free zone at 0.5 mg/kg, ip administered 5 mins post scopolamine-challengen and 35 mins prior to training by passive avoidance test (reference value: 40.25 +/- 2.84 sec)
Assay type: functional
Listed compounds paired with reported Time
Report only the number, with the unit s understood.

Problem: Please supply the value of reported Time for the item CCN(C)C(=O)Oc1cccc([C@H](C)N(C)C)c1 [RIVASTIGMINE]
Result: 37.08

Problem: Please supply the value of reported Time for the item O=C(Nc1nnc(-c2ccccc2Cl)s1)c1cccc(CCl)c1
Result: 34.58

Problem: Please supply the value of reported Time for the item CC(=O)Oc1cccc(C(=O)Nc2nnc(-c3ccccc3Cl)s2)c1
Result: 36.33

Problem: Please supply the value of reported Time for the item O=C(Nc1nnc(-c2ccccc2Cl)s1)c1cc(C(F)(F)F)cc(C(F)(F)F)c1
Result: 30.75

* * *

Test system: Mus musculus
test-details: Antiamnesic activity against scopolamine-induced memory loss in albino mouse assessed as escape latency time at 0.5 mg/kg, ip administered 5 mins post scopolamine-challenge and 35 mins prior to training measured on day 3 by Morris water maze test (reference value: 88.33 +/- 0.95 sec)
Assay type: functional
Listed molecules paired with reported Time
Report only the number, with the unit s understood.

Please review the following examples before continuing.
CCN(C)C(=O)Oc1cccc([C@H](C)N(C)C)c1 [RIVASTIGMINE] = 72.92
O=C(Nc1nnc(-c2ccccc2Cl)s1)c1cccc(CCl)c1 = 62.92

Problem: Please supply the value of reported Time for the item CC(=O)Oc1cccc(C(=O)Nc2nnc(-c3ccccc3Cl)s2)c1
Result: 62.33

Problem: Please supply the value of reported Time for the item O=C(Nc1nnc(-c2ccccc2Cl)s1)c1cc(C(F)(F)F)cc(C(F)(F)F)c1
Result: 73.75

* * *

system-tested: Acetylcholinesterase (Mus musculus, UniProt P21836)
test-details: Uncompetitive inhibition of albino mouse brain AChE using acetylthiocholine iodide as substrate measured up to 2 mins by Ellmans method
Listed compounds paired with reported log10 of Ki
log10 Ki, µM

Please review the following examples before continuing.
CC(=O)Oc1cccc(C(=O)Nc2nnc(Cc3ccccc3)s2)c1 = 0.75
CC(CC(=O)Nc1nnc(-c2ccccc2)s1)CC(C)(C)C (stereo unspecified) = 0.88
Cc1ccc(-c2nnc(NC(=O)CC(C)CC(C)(C)C)s2)cc1 (stereo unspecified) = 0.92
O=C(Nc1nnc(-c2ccccc2Cl)s1)c1cccc(CCl)c1 = -0.18
CC(CC(=O)Nc1nnc(Cc2ccccc2)s1)CC(C)(C)C (stereo unspecified) = 0.60
CC(=O)Oc1cccc(C(=O)Nc2nnc(-c3ccc(C)cc3)s2)c1 = 0.58
CC(CC(=O)Nc1nnc(-c2cccc(Cl)c2)s1)CC(C)(C)C (stereo unspecified) = 0.43
CC(=O)Oc1cccc(C(=O)Nc2nnc(-c3ccccc3Cl)s2)c1 = -0.19
Cc1ccc(-c2nnc(NC(=O)c3cc(C(F)(F)F)cc(C(F)(F)F)c3)s2)cc1 = 0.58
O=C(Nc1nnc(Cc2ccccc2)s1)c1cccc(CCl)c1 = 0.70

Problem: Please supply the value of reported log10 of Ki for the item O=C(Nc1nnc(-c2ccccc2)s1)c1cccc(CCl)c1
Result: -0.07

* * *

Listed molecules paired with reported Activity
Tested on: Mus musculus
test-details: Inhibition of scopolamine-induced increase in AchE level in albino mouse assessed as AChE level in brain at 0.5 mg/kg, ip administered 5 mins post scopolamine-challenge using acetlythiocholine iodidie as substrate by Ellman's method (reference value: 0.011 +/- 0.0022 umol/min/mg)
Assay type: functional

O=C(Nc1nnc(-c2ccccc2Cl)s1)c1cccc(CCl)c1 = 0.003 µmol/min/mg
O=C(Nc1nnc(-c2ccccc2Cl)s1)c1cc(C(F)(F)F)cc(C(F)(F)F)c1 = 0.002 µmol/min/mg
CCN(C)C(=O)Oc1cccc([C@H](C)N(C)C)c1 = 0.005 µmol/min/mg
CC(=O)Oc1cccc(C(=O)Nc2nnc(-c3ccccc3Cl)s2)c1 = 0.004 µmol/min/mg
Cc1ccc(-c2nnc(NC(=O)c3cc(C(F)(F)F)cc(C(F)(F)F)c3)s2)cc1 = 0.003 µmol/min/mg
O=C(Nc1nnc(-c2ccccc2)s1)c1cccc(CCl)c1 = 0.004 µmol/min/mg

Turning now to a further molecule:
Problem: Please supply the value of reported Activity for the item O=C(Nc1nnc(Cc2ccccc2)s1)c1cccc(CCl)c1
Result: 0.003 µmol/min/mg

* * *

System: Mus musculus
test-details: Antiamnesic activity against scopolamine-induced memory loss in albino mouse assessed as escape latency time at 0.5 mg/kg, ip administered 5 mins post scopolamine-challenge and 35 mins prior to training measured on day 2 by Morris water maze test (reference value: 89.41 +/- 0.39 sec)
Type: functional
reported-metric: Time
Answer with the value and then the unit.

Please review the following examples before continuing.
O=C(Nc1nnc(-c2ccccc2Cl)s1)c1cccc(CCl)c1 = 76.08 s
CC(=O)Oc1cccc(C(=O)Nc2nnc(-c3ccccc3Cl)s2)c1 = 77.83 s
CCN(C)C(=O)Oc1cccc([C@H](C)N(C)C)c1 [RIVASTIGMINE] = 83.83 s

Turning now to a further molecule:
Problem: Please supply the value of reported Time for the item O=C(Nc1nnc(-c2ccccc2Cl)s1)c1cc(C(F)(F)F)cc(C(F)(F)F)c1
Result: 84.25 s

* * *

Listed compounds paired with reported Activity
Tested on: Mus musculus
test-details: Neuroprotective activity against scopolamine-induced oxidative damage in albino mouse assessed as nitrite level in plasma at 0.5 mg/kg, ip administered 5 mins post scopolamine-challenge by Greiss assay (reference value: 483.5 +/- 27.1 ug/ml)
Type: functional
Report only the number, with the unit µg/mL understood.

Please review the following examples before continuing.
O=C(Nc1nnc(Cc2ccccc2)s1)c1cccc(CCl)c1 = 324.8
O=C(Nc1nnc(-c2ccccc2Cl)s1)c1cccc(CCl)c1 = 308.8
CC(=O)Oc1cccc(C(=O)Nc2nnc(-c3ccccc3Cl)s2)c1 = 265.5
O=C(Nc1nnc(-c2ccccc2Cl)s1)c1cc(C(F)(F)F)cc(C(F)(F)F)c1 = 291.8
Cc1ccc(-c2nnc(NC(=O)c3cc(C(F)(F)F)cc(C(F)(F)F)c3)s2)cc1 = 306.5
O=C(Nc1nnc(-c2ccccc2)s1)c1cccc(CCl)c1 = 268.5

Turning now to a further compound:
Problem: Please supply the value of reported Activity for the item CCN(C)C(=O)Oc1cccc([C@H](C)N(C)C)c1
Result: 418.2

* * *

Listed compounds paired with reported Activity
System: Mus musculus
test-details: Neuroprotective activity against scopolamine-induced oxidative damage in albino mouse assessed as glutathione reductase level in brain measured per mg of protein at 0.5 mg/kg, ip administered 5 mins post scopolamine-challenge by Ellamns assay (reference value: 0.008 +/- 0.001 umol)
Assay type: functional
Report only the number, with the unit µmol understood.

Please review the following examples before continuing.
O=C(Nc1nnc(Cc2ccccc2)s1)c1cccc(CCl)c1 = 0.01
CCN(C)C(=O)Oc1cccc([C@H](C)N(C)C)c1 = 0.014
Cc1ccc(-c2nnc(NC(=O)c3cc(C(F)(F)F)cc(C(F)(F)F)c3)s2)cc1 = 0.012
O=C(Nc1nnc(-c2ccccc2)s1)c1cccc(CCl)c1 = 0.012
O=C(Nc1nnc(-c2ccccc2Cl)s1)c1cc(C(F)(F)F)cc(C(F)(F)F)c1 = 0.016

Problem: Please supply the value of reported Activity for the item CC(=O)Oc1cccc(C(=O)Nc2nnc(-c3ccccc3Cl)s2)c1
Result: 0.013

Problem: Please supply the value of reported Activity for the item O=C(Nc1nnc(-c2ccccc2Cl)s1)c1cccc(CCl)c1
Result: 0.01

* * *

system-tested: Acetylcholinesterase (Mus musculus)
Sequence (P21836 whole entry): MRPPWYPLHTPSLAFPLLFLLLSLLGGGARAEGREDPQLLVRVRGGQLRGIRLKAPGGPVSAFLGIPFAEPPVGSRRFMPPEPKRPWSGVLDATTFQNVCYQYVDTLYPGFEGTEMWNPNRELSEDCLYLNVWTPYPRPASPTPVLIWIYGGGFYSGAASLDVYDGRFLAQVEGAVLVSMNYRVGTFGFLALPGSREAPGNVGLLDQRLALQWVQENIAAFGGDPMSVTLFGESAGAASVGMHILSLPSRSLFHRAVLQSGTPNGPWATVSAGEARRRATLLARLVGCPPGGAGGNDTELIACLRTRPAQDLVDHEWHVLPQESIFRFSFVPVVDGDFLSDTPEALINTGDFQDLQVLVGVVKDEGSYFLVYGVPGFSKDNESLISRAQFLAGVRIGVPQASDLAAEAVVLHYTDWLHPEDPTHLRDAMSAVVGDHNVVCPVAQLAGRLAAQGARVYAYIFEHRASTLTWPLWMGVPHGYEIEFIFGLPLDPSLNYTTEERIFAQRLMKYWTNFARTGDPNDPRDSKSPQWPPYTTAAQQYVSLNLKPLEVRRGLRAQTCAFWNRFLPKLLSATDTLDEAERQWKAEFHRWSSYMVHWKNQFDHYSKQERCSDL
Listed compounds paired with reported IC50

Please review the following examples before continuing.
CC(=O)Oc1cccc(C(=O)Nc2nnc(-c3ccccc3Cl)s2)c1 = 3.03 µM
O=C(Nc1nnc(-c2ccccc2)s1)c1cccc(CCl)c1 = 4.09 µM
Cc1ccc(-c2nnc(NC(=O)CC(C)CC(C)(C)C)s2)cc1 (centres undefined) = 23.7 µM
CC(CC(=O)Nc1nnc(-c2ccccc2)s1)CC(C)(C)C (centres undefined) = 23.7 µM
CC(CC(=O)Nc1nnc(Cc2ccccc2)s1)CC(C)(C)C (centres undefined) = 27.1 µM
Cc1ccc(-c2nnc(NC(=O)c3cccc(CCl)c3)s2)cc1 = 12.6 µM

Problem: Please supply the value of reported IC50 for the item CC(=O)Oc1cccc(C(=O)Nc2nnc(-c3ccccc3)s2)c1
Result: 3.78 µM
